Can you tell me pIC50 for the items I'm about to list?
system: Leishmania infantum; assay: MMV: Inhibition of Leishmania infantum (MHOM/MA/BE/67) in vitro.; format: functional, organism-based
Notebook: values listed as pIC50 are -log10 of the concentration (mol/L).

stdin: Given the entry CN1CCN(c2nc(Nc3ccc(O)cc3)nc3ccccc23)CC1 , report its measured pIC50.
stdout: 4.87

stdin: Given the entry O=C(Nc1ccc(CN2CCOCC2)cc1)c1ccc(-c2ccc(Br)cc2)o1 , report its measured pIC50.
stdout: 4.74

stdin: Given the entry CCc1ccc(CNCC(O)c2ccccc2)cc1 (stereo unspecified) , report its measured pIC50.
stdout: 4.60

stdin: Given the entry COc1cc(OC)c(N(C)C(=O)c2cc3c(s2)-c2ccccc2S(=O)(=O)C3)cc1Cl , report its measured pIC50.
stdout: 4.67
